Test: STM_H9_OrnCyssISnorm_ratio: Stemina devTOX quickPredict H9 human embryonic stem cell (hESC)-based Assay for Ornithine (ORN):Cystine (CYSS) Ratio (AID 2283714)
Inconclusive results are not listed. Activity calls are given as the source filed them. The calls were made as follows: active = hit-call score of the fitted dose curve at least 0.9, where 1 is the maximum; inconclusive = response in the unintended direction; inactive = score below 0.9.
Outcome codes: 1 for active, 0 for inactive

- compound: "N#CCCC(Br)(C#N)CBr (centres undefined)"
  assigned-category: 1
- compound: "CN(C)C(=S)S"
  assigned-category: 1
- compound: "Nc1ncn[nH]1"
  assigned-category: 0
- compound: "OCCN(CCO)CCO"
  assigned-category: 0

###

Read-out: Interferon-gamma inducible Protein 10 (IP10), CXCL10 (gene 3627)
Test: BSK_hDFCGF_IP10: BioMAP Diversity Plus: hDFCGF Assay for Interferon-gamma inducible Protein 10 (IP10) Biomarker Activity (AID 2283053)
Settings: primary human foreskin fibroblasts; actives raise or lower the signal
Active and inactive are the calls of the source. Rule for the calls: active = hit-call score of the fitted dose curve at least 0.9, where 1 is the maximum; inactive = score below 0.9.
Possible outcomes: active, inactive

- sample-smiles: "Oc1ccc(Cc2ccc(O)cc2)cc1"
  assigned-category: "inactive"
- sample-smiles: "OCCN(CCO)CCO"
  assigned-category: "inactive"
- sample-smiles: "CC(C)N(C(=O)CCl)c1ccccc1"
  assigned-category: "active"
- sample-smiles: "O=C(O)C1(c2ccc3c(c2)OC[C@H](Cc2ccc(-c4ccccc4)cc2)[C@H]3O)CCCC1"
  assigned-category: "active"
- sample-smiles: "Cc1c([N+](=O)[O-])c(C)c([N+](=O)[O-])c(C(C)(C)C)c1[N+](=O)[O-]"
  assigned-category: "inactive"
- sample-smiles: "Oc1c(Br)cc(Br)cc1Br"
  assigned-category: "inactive"

src = PubChem BioAssay (EPA / NIEHS)
